Attribution: ChEMBL document CHEMBL3351796

# measured on: NAD-dependent protein deacetylase sirtuin-2 (Homo sapiens) (UniProt Q8IXJ6)
# method description: Inhibition of full length human SIRT2 expressed in Escherichia coli BL21 (DE3) cells at 100 uM using fluorogenic 7-amino-4-methylcoumarin (AMC)-labeled peptide by fluorescence assay
For each of the molecules below, state its inhibition.
Give bare numbers, in %.

Solved cases (6 shown):
| record smiles | measured on | unit tag | inhibition |
| --- | --- | --- | --- |
| NC(=O)c1ccc(Oc2ccc3ccccc3c2)cc1 | NAD-dependent protein deacetylase sirtuin-2 (Homo sapiens) (UniProt Q8IXJ6) | % | 16 |
| Cc1ccc(C(=O)Nc2ccc(S(=O)(=O)O)c3ccccc23)cc1 | NAD-dependent protein deacetylase sirtuin-2 (Homo sapiens) (UniProt Q8IXJ6) | % | 17 |
| NC(=O)c1cccc(Nc2ccc3ccccc3c2)c1 | NAD-dependent protein deacetylase sirtuin-2 (Homo sapiens) (UniProt Q8IXJ6) | % | 65 |
| O=C(Nc1cccc2cc(S(=O)(=O)O)ccc12)c1cccc([N+](=O)[O-])c1 | NAD-dependent protein deacetylase sirtuin-2 (Homo sapiens) (UniProt Q8IXJ6) | % | 22 |
| NC(=O)c1ccc(Sc2ccc3ccccc3c2)cc1 | NAD-dependent protein deacetylase sirtuin-2 (Homo sapiens) (UniProt Q8IXJ6) | % | 41 |
| NC(=O)c1ccc(Nc2cccc3ccccc23)nc1 | NAD-dependent protein deacetylase sirtuin-2 (Homo sapiens) (UniProt Q8IXJ6) | % | 41 |

Lab note: each molecule below needs its inhibition filled in.
1. NC(=O)c1ccc(Oc2ccc3ccccc3c2)nc1
2. Cc1ccc(C(=O)Nc2ccc(S(=O)(=O)O)c3ccccc23)cc1[N+](=O)[O-]
3. O=C(Nc1ccc(S(=O)(=O)O)c2ccccc12)c1ccccc1
4. NC(=O)c1cccc(Oc2cccc3ccccc23)c1
5. NC(=O)c1ccc(Nc2ccc3ccccc3c2)nc1
6. NC(=O)c1ccc(Nc2ccc3ccccc3c2)cc1
7. NC(=O)c1ccc(Sc2cccc3ccccc23)nc1
8. NC(=O)c1cccc(Oc2ccc3ccccc3c2)c1

Return:
61
25
10
66
20
15
47
84

----------
# measured on: NAD-dependent protein deacetylase sirtuin-2 (Homo sapiens, UniProt Q8IXJ6)
# Sequence (Q8IXJ6 whole entry): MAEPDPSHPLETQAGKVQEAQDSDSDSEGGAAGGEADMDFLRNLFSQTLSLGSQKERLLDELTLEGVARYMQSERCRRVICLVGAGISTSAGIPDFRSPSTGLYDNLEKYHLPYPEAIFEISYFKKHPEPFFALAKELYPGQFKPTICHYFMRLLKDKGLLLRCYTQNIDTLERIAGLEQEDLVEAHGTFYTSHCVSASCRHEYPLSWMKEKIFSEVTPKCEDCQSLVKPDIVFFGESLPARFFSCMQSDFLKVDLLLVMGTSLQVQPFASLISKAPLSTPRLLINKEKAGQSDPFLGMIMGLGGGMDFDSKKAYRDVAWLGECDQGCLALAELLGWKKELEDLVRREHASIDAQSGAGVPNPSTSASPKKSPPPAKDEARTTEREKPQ
measurement name: IC50 (nM)
Answers are plain numbers, in nM.

Examples from the recorded data:
| record smiles | measured on | IC50 (nM) |
| --- | --- | --- |
| NC(=O)c1cncc(Oc2cccc3c(NC(=O)c4cccnc4)cccc23)c1 | NAD-dependent protein deacetylase sirtuin-2 (Homo sapiens, UniProt Q8IXJ6) | 558 |
| NC(=O)c1cncc(Oc2ccc3ccccc3c2)c1 | NAD-dependent protein deacetylase sirtuin-2 (Homo sapiens, UniProt Q8IXJ6) | 6290 |

Batch lookup, IC50 per entry.
1. NC(=O)c1cncc(Oc2cccc3c(NC(=O)c4cccc([N+](=O)[O-])c4)cccc23)c1
2. NC(=O)c1cncc(Oc2ccc3c(NC(=O)c4cccc([N+](=O)[O-])c4)cccc3c2)c1
3. Cc1ccc(C(=O)Nc2cccc3c(Oc4cncc(C(N)=O)c4)cccc23)cc1[N+](=O)[O-]

Return:
[434, 811, 978]
